# assay procedure: qHTS for Inhibitors of the Functional Ribonucleoprotein Complex (vRNP) of Lymphocytic Choriomeningitis Arenaviruses (LCMV): Viability assay - alamar blue signal for LCMV Primary Screen (AID 1347085); further: nearly all actives have a fitted effect of over 80% in size; further: potency means the concentration at half of the fitted maximal effect
# condition: alamar blue viability counter-screen, LCMV vRNP screen cells; series mostly up to 57.5 µM
Inconclusive results are not listed. Active and inactive are the calls of the source. The call rests on the fitted dose curve; tested in HEK293 reporter line.
reported metric: Potency

compound	reported metric	reported
C=CC(C)(CCC=C(C)C)OC=O (stereo not given)	Potency	inactive
CC1=CCC(C(C)C)=CC1	Potency	inactive
CC(=O)OCC(=O)[C@@]1(O)CC[C@H]2[C@@H]3CCC4=CC(=O)C=C[C@]4(C)[C@@H]3[C@@H](O)C[C@@]21C	Potency	inactive
Cc1ccccc1C(C(=O)NC1CCCCC1)N(C(=O)CNc1ccc(C#N)cc1)c1cccc(F)c1 (stereo not given)	Potency	inactive
C=C1C(=O)OC2CC3(C)OC3CCC(C)=CC(OC(C)=O)C12 (stereo not given)	Potency	inactive
CCn1nnc2c(N3CCOCC3)nc(-c3ccc(NC(=O)Nc4ccc(C(=O)N5CCN(C)CC5)cc4)cc3)nc21	Potency	0.0306 µM (active)
COc1ccc(CCC(N)=O)cc1OC	Potency	inactive
O=c1c2ccccc2nc2n1CCC2	Potency	inactive
C[C@@H](Oc1ccc2[nH]nc(C=Cc3cnn(CCO)c3)c2c1)c1c(Cl)cncc1Cl	Potency	27.3 µM (active)
C/C=C(/C)C(=O)OC1Cc2c(ccc3ccc(=O)oc23)OC1(C)C (stereo not given)	Potency	inactive
C[C@H]1COc2c(N3CCN(C)CC3)c(F)cc3c(=O)c(C(=O)O)cn1c23	Potency	inactive
C[C@H]1[C@@H](OC(=O)CCC(=O)O)O[C@@H]2O[C@@]3(C)CC[C@@H]4[C@H](C)CC[C@@H]1[C@@]24OO3	Potency	5.44 µM (active)
O=C(N[C@@H](Cc1ccccc1)C(=O)CCl)OCc1ccccc1	Potency	inactive
CCCCCCC1CCC(=O)O1 (stereo not given)	Potency	inactive
CC1=C[C@H](O)CC(C)(C)[C@H]1/C=C/C(C)=C/C=C/C(C)=C/C=C/C=C(C)/C=C/C=C(C)/C=C/C1=C(C)C[C@@H](O)CC1(C)C	Potency	inactive
C[C@@H]1O[C@@H](O[C@H]2[C@H](O)[C@@H](O)[C@H](Oc3c(-c4ccc(O)c(O)c4)oc4cc(O)cc(O)c4c3=O)O[C@@H]2CO)[C@H](O)[C@H](O)[C@H]1O	Potency	inactive
O=C(C=CC#Cc1cccc(NS(=O)(=O)c2ccccc2)c1)NO	Potency	6.85 µM (active)
Cn1c(=O)c2[nH]c(=O)[nH]c2n(C)c1=O	Potency	inactive
O=C(Nc1c(Cl)cncc1Cl)c1ccc(OC(F)F)c(OCC2CC2)c1	Potency	inactive
CC(N)(C(=O)O)c1ccc(C(=O)O)cc1 (stereo not given)	Potency	inactive
